# target.entity: UniProt:P0C6X2
# Sequence (P0C6X2 3335-3637 limits assumed): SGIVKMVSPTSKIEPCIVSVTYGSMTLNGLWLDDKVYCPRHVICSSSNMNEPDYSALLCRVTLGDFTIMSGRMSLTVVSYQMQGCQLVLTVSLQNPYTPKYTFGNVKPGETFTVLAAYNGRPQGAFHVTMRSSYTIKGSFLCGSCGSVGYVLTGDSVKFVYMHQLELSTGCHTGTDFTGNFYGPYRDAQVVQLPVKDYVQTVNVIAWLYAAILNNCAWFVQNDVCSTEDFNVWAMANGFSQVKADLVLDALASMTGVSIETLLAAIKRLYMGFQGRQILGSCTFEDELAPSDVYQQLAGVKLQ
# assay: HCoV-HKU1 Mpro enzymatic inhibition assay (fluorescence)
# Type: biochemical
Consider the cut-off 0.04 µM. If the recorded IC50 is strictly smaller, the label is Yes; if not, the label is No.

> print(dat)
                               entry.smiles  qualitative.label
1  CC1(C)[C@@H]2[C@@H](C(=O)N[C@H](C=O)C[C@@H]3CCNC3=O)N(C(=O)c3cc4occc4[nH]3)C[C@@H]21                 No
2  CC1(C)[C@@H]2[C@@H](C(=O)N[C@H](C=O)C[C@@H]3CCNC3=O)N(C(=O)c3cc4ccc(Cl)c(F)c4[nH]3)C[C@@H]21                Yes
3  O=C[C@H](C[C@@H]1CCNC1=O)NC(=O)[C@@H]1C[C@@H](F)CN1C(=O)c1cc2ccccc2[nH]1                Yes
4  N#Cc1ccc2cc(C(=O)N3CC4(CC4)C[C@H]3C(=O)N[C@H](C=O)C[C@@H]3CCNC3=O)[nH]c2c1                Yes

Lab note: next molecule to report on.
I'd appreciate it if you could check whether CC1(C)[C@@H]2[C@@H](C(=O)N[C@H](C=O)C[C@@H]3CCNC3=O)N(C(=O)c3cc4cc(Cl)ccc4[nH]3)C[C@@H]21 has IC50 smaller than 0.04 µM.
Yes
